molecular target: PfCRT WT (3D7) (Plasmodium falciparum, UniProt Q9N623); test: Equilibrium dialysis binding, PfCRT variant in nanodiscs
compounds and their reported Kd
assay_endpoint: Kd

- compound: "Clc1ccc2c(N3CCN(CCCN4CCN(c5ccnc6cc(Cl)ccc56)CC4)CC3)ccnc2c1"
  measured_on: "PfCRT WT (3D7) (Plasmodium falciparum, UniProt Q9N623)"
  value_observed: "0.26 µM"
- compound: "CCN(CC)CCCC(C)Nc1ccnc2cc(Cl)ccc12 (centres unmarked)"
  measured_on: "PfCRT WT (3D7) (Plasmodium falciparum, UniProt Q9N623)"
  value_observed: "0.28 µM"

---

target: PfCRT 7G8+F145I (Plasmodium falciparum, UniProt W7FI62, F145I); test: Equilibrium dialysis binding, PfCRT variant in nanodiscs; settings: Kd, binding at pH 5.5, equilibrium dialysis, pH 5.5
pKd: −log10 of the molar value.
compounds and their reported pKd
assay_endpoint: pKd

- compound: "Clc1ccc2c(N3CCN(CCCN4CCN(c5ccnc6cc(Cl)ccc56)CC4)CC3)ccnc2c1 [PPQ, piperaquine]"
  measured_on: "PfCRT 7G8+F145I (Plasmodium falciparum, UniProt W7FI62, F145I)"
  assay_endpoint: "pKd"
  value_observed: 6.66
- compound: "CCN(CC)CCCC(C)Nc1ccnc2cc(Cl)ccc12 (centres unmarked) [CQ, chloroquine]"
  measured_on: "PfCRT 7G8+F145I (Plasmodium falciparum, UniProt W7FI62, F145I)"
  assay_endpoint: "pKd"
  value_observed: 6.62
